flkGST (Homo sapiens) measurements of IC50, listed per entry.
Sequence (P35968 786-1356 limits assumed): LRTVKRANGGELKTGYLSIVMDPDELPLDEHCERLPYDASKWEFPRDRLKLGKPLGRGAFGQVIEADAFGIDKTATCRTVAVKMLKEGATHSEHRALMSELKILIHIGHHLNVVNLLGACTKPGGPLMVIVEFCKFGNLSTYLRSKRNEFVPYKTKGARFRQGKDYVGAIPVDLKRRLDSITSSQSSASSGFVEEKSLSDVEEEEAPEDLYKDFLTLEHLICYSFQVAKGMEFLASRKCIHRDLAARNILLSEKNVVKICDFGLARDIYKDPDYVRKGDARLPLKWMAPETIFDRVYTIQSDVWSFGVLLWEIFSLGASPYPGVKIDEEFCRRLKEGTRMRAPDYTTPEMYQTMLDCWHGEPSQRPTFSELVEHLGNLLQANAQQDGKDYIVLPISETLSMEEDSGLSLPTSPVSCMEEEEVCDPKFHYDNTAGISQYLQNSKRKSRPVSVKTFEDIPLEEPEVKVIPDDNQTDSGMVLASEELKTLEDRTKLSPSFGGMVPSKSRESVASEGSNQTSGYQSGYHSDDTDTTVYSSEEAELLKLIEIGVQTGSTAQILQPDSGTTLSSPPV

Cc1c[nH]c(/C=C2\C(=O)Nc3cccc(C)c32)c1CCC(=O)O | 480 nM
O=C1Nc2ccc(C(=O)O)cc2/C1=C/c1c[nH]c2ccccc12 | 1850 nM
COc1ccc(-c2ccc3c(c2)NC(=O)/C3=C\c2[nH]c3c(c2CCC(=O)O)CCCC3)cc1 | 440 nM
CCOC(=O)c1c(C)[nH]c(/C=C2\C(=O)Nc3ccc(S(=O)(=O)NC)cc32)c1CCCN1CCN(C)CC1 | 6330 nM

Could you tell me IC50 for each of these molecules? They are listed below.
1. COc1ccc2c(c1)/C(=C/c1[nH]cc(C)c1CCC(=O)O)C(=O)N2
2. Cc1cc(CCC(=O)O)c(/C=C2\C(=O)Nc3ccc(Br)cc32)[nH]1
3. CNS(=O)(=O)c1ccc2c(c1)/C(=C/c1c[nH]c3ccccc13)C(=O)N2

[out]
180 nM
100 nM
> 20000 nM

====

Tested System: chimeric receptor having the extra-cellular domain of EGF-R and the intra-cellular domain of Her2 (Homo sapiens)
Construct: fused on or other part: the same chimera
Sequence (P04626 676-1255 limits assumed, change not shown): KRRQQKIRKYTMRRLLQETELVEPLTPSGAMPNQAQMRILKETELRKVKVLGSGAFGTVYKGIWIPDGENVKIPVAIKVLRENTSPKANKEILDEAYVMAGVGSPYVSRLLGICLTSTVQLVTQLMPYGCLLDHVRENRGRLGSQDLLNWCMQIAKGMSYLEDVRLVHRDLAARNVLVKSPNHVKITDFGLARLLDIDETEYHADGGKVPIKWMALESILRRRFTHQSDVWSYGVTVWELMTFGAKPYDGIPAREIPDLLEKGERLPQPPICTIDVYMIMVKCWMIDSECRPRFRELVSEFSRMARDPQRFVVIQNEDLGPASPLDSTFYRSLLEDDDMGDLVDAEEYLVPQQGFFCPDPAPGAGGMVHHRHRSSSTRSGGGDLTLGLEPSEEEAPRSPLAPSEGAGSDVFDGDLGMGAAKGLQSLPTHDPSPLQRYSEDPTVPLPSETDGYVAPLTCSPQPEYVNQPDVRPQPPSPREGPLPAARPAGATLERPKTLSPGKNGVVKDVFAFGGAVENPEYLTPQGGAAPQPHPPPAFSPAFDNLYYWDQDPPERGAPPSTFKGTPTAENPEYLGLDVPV
Protocol: EGF-induced Her2-driven BrdU incorporation
Protocol Conditions: read-out: BrdU HER 2 driven IC50
Assign pIC50 to each entry below.
Answers are plain numbers, as −log10 of the molar value.

COc1cc(C)c(C=C2C(=O)Nc3ccc(Cl)cc32)cc1C(C)C [Example 9] | 5.35
COc1c(C(C)C)cc(/C=C2/C(=O)Nc3cc(NC(C)=O)ccc32)cc1C(C)C [Example 3] | 5.04
COc1ccc(C=C2C(=O)Nc3cc(NC(C)=O)ccc32)cc1-c1cccc(NC(C)=O)c1 (mixture of isomers) [Example 63] | 4.69

# evaluate next
[in] I'd like to know its pIC50. The compound in question is COC(=O)c1ccc2c(c1)/C(=C\c1cc(C(C)C)c(OC)c(C(C)C)c1)C(=O)N2 [Example 6]
[out] 5.33

====

Tested System: EGFR (Homo sapiens)
Sequence (P00533 25-1210): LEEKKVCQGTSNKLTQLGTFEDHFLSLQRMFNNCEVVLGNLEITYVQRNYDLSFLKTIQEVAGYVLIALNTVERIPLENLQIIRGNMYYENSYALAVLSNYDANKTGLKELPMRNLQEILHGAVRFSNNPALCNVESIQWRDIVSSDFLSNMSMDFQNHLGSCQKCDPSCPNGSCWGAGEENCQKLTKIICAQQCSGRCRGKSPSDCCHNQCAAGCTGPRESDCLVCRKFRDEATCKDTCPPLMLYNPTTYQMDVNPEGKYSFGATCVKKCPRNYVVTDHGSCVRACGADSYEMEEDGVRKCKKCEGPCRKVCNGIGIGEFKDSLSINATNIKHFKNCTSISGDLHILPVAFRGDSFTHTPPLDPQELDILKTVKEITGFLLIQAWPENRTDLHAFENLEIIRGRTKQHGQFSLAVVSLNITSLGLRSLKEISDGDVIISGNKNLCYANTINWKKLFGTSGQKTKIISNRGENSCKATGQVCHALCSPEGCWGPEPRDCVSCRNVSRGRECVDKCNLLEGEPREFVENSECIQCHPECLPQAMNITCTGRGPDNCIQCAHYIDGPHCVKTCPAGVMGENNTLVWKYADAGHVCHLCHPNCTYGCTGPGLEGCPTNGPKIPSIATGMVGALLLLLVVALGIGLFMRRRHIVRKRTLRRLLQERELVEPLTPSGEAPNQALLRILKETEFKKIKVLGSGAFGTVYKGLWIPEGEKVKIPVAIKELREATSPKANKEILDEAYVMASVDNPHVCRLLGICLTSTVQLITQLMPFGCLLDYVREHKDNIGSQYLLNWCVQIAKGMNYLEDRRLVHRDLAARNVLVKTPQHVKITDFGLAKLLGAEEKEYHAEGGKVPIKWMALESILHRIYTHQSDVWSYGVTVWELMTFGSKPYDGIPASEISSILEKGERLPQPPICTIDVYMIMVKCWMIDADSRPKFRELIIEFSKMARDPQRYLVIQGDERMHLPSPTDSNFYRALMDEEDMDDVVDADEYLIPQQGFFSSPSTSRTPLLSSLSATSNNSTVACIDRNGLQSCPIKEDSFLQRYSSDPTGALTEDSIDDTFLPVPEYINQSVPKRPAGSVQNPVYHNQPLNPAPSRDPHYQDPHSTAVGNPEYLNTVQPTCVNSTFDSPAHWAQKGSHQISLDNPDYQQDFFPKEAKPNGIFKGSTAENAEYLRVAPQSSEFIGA
Protocol: EGFR assay (cellular ELISA, NIH 3T3/C7 cells)
Type: cell-based
Design: expressed in transfected cells; host or cells: NIH 3T3/C7
Protocol Conditions: read-out: cell EGF IC50
Method: EGF Receptor kinase activity in cells genetically engineered to express human EGF-R can be measured as described below: Materials and Reagents. • a. […] 05-101 (UBI) (a monoclonal antibody recognizing an EGFR extracellular domain). • c. Anti-phosphotyosine antibody (anti-Ptyr) (polyclonal). • d. […] Assay Procedures. • 1. […] The maximal phosphotyrosine signal is determined by subtracting the value of the negative controls from the positive controls. […]
Attribute Measured: IC50

Worked examples follow.
COc1ccc(/C=C2/C(=O)Nc3ccccc32)cc1C1CCCCC1 | 71.9 µM
CC(C)c1cc(/C=C2/C(=O)Nc3ccc(Br)cc32)cc(C(C)C)c1OCCN1CCOCC1 | > 100 µM
COc1c(C(C)C)cc(/C=C2/C(=O)Nc3ccc(Br)cc32)cc1C(C)C | 79.3 µM

Could you tell me IC50 for each of these compounds? They are listed below.
1. COc1cc(/C=C2/C(=O)Nc3ccccc32)c(-c2ccc3ccccc3c2)cc1OC
2. O=C1Nc2ccc(C(=O)O)cc2/C1=C/c1c[nH]c2ccccc12
3. Cc1cc(CCC(=O)O)c(/C=C2\C(=O)Nc3ccc(Br)cc32)[nH]1
4. COc1ccc2c(c1)NC(=O)/C2=C/c1ccc(OC)c(-c2ccsc2)c1
5. Cc1cccc2c1/C(=C/c1cc3ccccc3[nH]1)C(=O)N2

[out]
1. > 100 µM
2. > 100 µM
3. > 100 µM
4. > 100 µM
5. > 100 µM

Could you tell me IC50 for each of these compounds? They are listed below.
1. Cc1cccc2c1/C(=C/c1ccc3c(c1)CCC(C)(C)O3)C(=O)N2
2. Cc1cc(CCC(=O)O)c(/C=C2\C(=O)Nc3cc(-c4ccc(F)cc4)ccc32)[nH]1

[out]
["> 100 µM", "> 100 µM"]

Could you tell me IC50 for each of these compounds? They are listed below.
1. COc1cc(C=C2C(=O)Nc3ccccc32)c(-c2ccccc2OC)cc1OC
2. CCOc1cccc(-c2cc(OC)c(OC)cc2/C=C2/C(=O)Nc3ccccc32)c1
3. O=C1Nc2ccc(C(=O)O)cc2/C1=C/c1ccc2[nH]ccc2c1
4. COc1ccc(/C=C2/C(=O)Nc3ncccc32)cc1-c1ccccc1
5. CC(C)NS(=O)(=O)c1ccc2c(c1)C(=Cc1[nH]c3c(c1CCC(=O)O)CCCC3)C(=O)N2
6. COc1cc(C)c(/C=C2/C(=O)Nc3ccc(F)cc32)cc1C(C)C
7. COc1ccc2c(c1)NC(=O)/C2=C\c1[nH]cc(C)c1CCC(=O)O
8. CCOC(=O)c1c(C)[nH]c(/C=C2\C(=O)Nc3cc(-c4ccc(F)cc4)ccc32)c1CCC(=O)O

[out]
1: > 100 µM; 2: > 100 µM; 3: > 100 µM; 4: > 100 µM; 5: > 100 µM; 6: 63.4 µM; 7: > 100 µM; 8: > 100 µM
